ASSAYED TARGET: PI3Kalpha (Homo sapiens, UniProt P42336)
Construct: partly as full-length kinases, partly as shortened fragments, but at least consisting of the functional kinase domains
Sequence (P42336 whole entry, the tested form may be a part): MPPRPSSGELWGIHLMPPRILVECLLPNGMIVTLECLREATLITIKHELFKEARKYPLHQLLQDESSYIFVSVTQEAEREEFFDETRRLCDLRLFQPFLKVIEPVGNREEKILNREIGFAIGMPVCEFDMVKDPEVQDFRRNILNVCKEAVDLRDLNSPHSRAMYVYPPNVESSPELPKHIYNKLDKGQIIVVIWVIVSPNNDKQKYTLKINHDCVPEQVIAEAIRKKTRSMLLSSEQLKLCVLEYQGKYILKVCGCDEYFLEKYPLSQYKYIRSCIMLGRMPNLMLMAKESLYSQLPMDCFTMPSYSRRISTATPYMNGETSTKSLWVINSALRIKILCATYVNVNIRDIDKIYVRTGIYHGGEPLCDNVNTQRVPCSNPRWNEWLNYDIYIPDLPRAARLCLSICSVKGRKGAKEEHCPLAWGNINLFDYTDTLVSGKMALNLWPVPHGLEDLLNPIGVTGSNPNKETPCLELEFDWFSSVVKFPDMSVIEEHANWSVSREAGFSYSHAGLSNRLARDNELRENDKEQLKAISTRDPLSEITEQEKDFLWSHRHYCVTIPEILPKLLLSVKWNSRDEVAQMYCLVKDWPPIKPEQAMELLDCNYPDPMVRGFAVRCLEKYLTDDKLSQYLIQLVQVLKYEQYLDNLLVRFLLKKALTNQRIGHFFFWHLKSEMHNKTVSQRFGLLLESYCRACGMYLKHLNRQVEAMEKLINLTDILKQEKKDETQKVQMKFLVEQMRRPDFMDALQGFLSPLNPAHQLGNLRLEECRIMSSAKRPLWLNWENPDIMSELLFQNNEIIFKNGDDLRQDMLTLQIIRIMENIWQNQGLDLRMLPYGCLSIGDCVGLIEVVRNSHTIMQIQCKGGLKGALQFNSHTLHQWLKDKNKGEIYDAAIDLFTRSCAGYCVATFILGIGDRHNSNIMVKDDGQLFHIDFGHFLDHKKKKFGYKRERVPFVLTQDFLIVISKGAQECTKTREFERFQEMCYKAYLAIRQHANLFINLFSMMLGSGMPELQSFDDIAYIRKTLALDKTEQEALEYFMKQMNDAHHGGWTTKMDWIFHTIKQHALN
Sequence (P27986 whole entry partner, the tested form may be a part): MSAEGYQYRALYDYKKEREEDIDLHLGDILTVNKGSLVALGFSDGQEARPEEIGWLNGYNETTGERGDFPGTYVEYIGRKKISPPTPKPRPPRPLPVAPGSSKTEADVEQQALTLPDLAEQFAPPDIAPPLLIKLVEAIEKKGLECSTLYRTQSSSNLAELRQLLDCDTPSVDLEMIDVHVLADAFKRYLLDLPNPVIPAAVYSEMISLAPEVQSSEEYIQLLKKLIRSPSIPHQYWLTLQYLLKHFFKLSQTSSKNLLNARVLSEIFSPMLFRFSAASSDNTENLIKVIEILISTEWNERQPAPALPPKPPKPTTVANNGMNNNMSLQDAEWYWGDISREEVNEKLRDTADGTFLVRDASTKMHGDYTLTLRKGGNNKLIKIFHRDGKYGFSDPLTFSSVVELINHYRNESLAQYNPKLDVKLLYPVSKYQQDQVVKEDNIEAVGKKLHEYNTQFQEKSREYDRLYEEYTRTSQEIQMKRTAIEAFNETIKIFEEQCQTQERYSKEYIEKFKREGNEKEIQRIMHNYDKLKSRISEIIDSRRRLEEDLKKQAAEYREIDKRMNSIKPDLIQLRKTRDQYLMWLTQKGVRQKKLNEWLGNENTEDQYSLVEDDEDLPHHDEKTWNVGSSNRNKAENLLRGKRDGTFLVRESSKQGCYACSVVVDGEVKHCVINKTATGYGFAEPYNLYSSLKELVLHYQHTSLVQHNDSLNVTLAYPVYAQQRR
PROTOCOL DETAILS: Cell-free kinase assay (ALPHA technology), PI3Kalpha
STUDY CONDITIONS: at 100 μM ATP; recombinant human kinase
MEASURED QUANTITY: IC50 (µM)

# count of solved cases: 8
{"columns": ["STRUCTURE AS SMILES", "IC50 / µM"],
 "data": [
  ["CCNC(=S)Nc1ccc2ncc(-c3cnn(Cc4cccc(OC(F)F)c4)c3)nc2n1", 0.059],
  ["CCNC(=S)Nc1ccc2ncc(-c3cnn(Cc4cccc(OC)c4F)c3)nc2n1", 0.112],
  ["CCNC(=S)Nc1ccc2ncc(-c3cnn(Cc4ccc(O)c(OC)c4)c3)nc2n1", 0.391],
  ["CCNC(=S)Nc1ccc2ncc(-c3cnn(Cc4ccc(OC)c(OC)c4)c3)nc2n1", 0.082],
  ["CCNC(=S)Nc1ccc2ncc(-c3cnn(Cc4cccc(C)c4)c3)nc2n1", 0.184],
  ["CCNC(=O)Nc1ccc2ncc(-c3cnn(Cc4ccc(OC)c(OC)c4)c3)nc2n1", 0.274],
  ["CCNC(=S)Nc1ccc2ncc(-c3cnn(Cc4cccc(S(C)(=O)=O)c4)c3)nc2n1", 0.18],
  ["CCNC(=S)Nc1ccc2ncc(-c3cnn(Cc4ccc(O)cc4)c3)nc2n1", 0.208]
]}

P. CCNC(=S)Nc1ccc2ncc(-c3cnn(Cc4ccccc4)c3)nc2n1
Q. CCNC(=S)Nc1ccc2ncc(-c3cnn(Cc4cccc(OC)c4)c3)nc2n1
Ask: Select one: P or Q . Criterion: greater recorded IC50. Identify your selection by its label.
Result: P

----------
MEASURED QUANTITY: melting point (°C)

{"columns": ["STRUCTURE AS SMILES", "UNITS TEXT", "OBS VALUE"],
 "data": [
  ["CCNC(=S)Nc1ccc2ncc(-c3cnn(Cc4ccc5c(c4)OCO5)c3)nc2n1", "°C", 244],
  ["CCNC(=O)Nc1ccc2ncc(-c3cnn(Cc4cc(OC)c(OC)c(OC)c4)c3)nc2n1", "°C", 219],
  ["CCNC(=S)Nc1ccc2ncc(-c3cnn(Cc4cc(OC)ccc4OC)c3)nc2n1", "°C", 225],
  ["CCNC(=S)Nc1ccc2ncc(-c3cnn(Cc4cc(OC)cc(OC)c4)c3)nc2n1", "°C", 230],
  ["COCCNC(=S)Nc1ccc2ncc(-c3cnn(Cc4cccc(OC)c4)c3)nc2n1", "°C", 215],
  ["CCNC(=S)Nc1ccc2ncc(-c3cnn(Cc4ccc(OC)c(OC)c4)c3)nc2n1", "°C", 213],
  ["COCNC(=S)Nc1ccc2ncc(-c3cnn(Cc4ccc(OC)c(OC)c4)c3)nc2n1", "°C", 188],
  ["COc1cccc(Cn2cc(-c3cnc4ccc(NC(=S)NCC(F)(F)F)nc4n3)cn2)c1", "°C", 217],
  ["CCNC(=O)Nc1ccc2ncc(-c3cnn(CCNC(=O)OC(C)(C)C)c3)nc2n1", "°C", 235],
  ["CCNC(=O)Nc1ccc2ncc(-c3cnn(CCC(N)=O)c3)nc2n1", "°C", 247],
  ["CCNC(=O)Nc1ccc2ncc(-c3cnn(CCCCc4ccccc4)c3)nc2n1", "°C", 182],
  ["COCCNC(=S)Nc1ccc2ncc(-c3cnn(Cc4ccc(OC)c(OC)c4)c3)nc2n1", "°C", 198],
  ["CCNC(=O)Nc1ccc2ncc(-c3ccoc3)nc2n1", "°C", 240],
  ["CCNC(=O)Nc1ccc2ncc(-c3cnn(Cc4cccc(O)c4)c3)nc2n1", "°C", 242],
  ["CCNC(=S)Nc1ccc2ncc(-c3cnn(Cc4cccc(OCC)c4)c3)nc2n1", "°C", 222],
  ["CCNC(=O)Nc1ccc2ncc(-c3cnn(Cc4ccc(OC(F)(F)F)cc4)c3)nc2n1", "°C", 231],
  ["CCNC(=O)Nc1ccc2ncc(-c3cnn(Cc4ccc(OC)c(O)c4)c3)nc2n1", "°C", 250],
  ["CCNC(=O)Nc1ccc2ncc(-c3cnn(Cc4cccc(OC(F)F)c4)c3)nc2n1", "°C", 198],
  ["CCNC(=S)Nc1ccc2ncc(-c3cnn(Cc4ccc(Cl)cc4)c3)nc2n1", "°C", 249],
  ["CCNC(=S)Nc1ccc2ncc(-c3cnn(Cc4ccc(OC)cc4)c3)nc2n1", "°C", 237],
  ["CCNC(=S)Nc1ccc2ncc(-c3cnn(Cc4ccc(C)cc4)c3)nc2n1", "°C", 241],
  ["CCNC(=O)Nc1ccc2ncc(-c3cnn(Cc4cccc(S(C)(=O)=O)c4)c3)nc2n1", "°C", 218],
  ["CCNC(=O)Nc1ccc2ncc(-c3cnn(Cc4cccc(OCCOC)c4)c3)nc2n1", "°C", 201],
  ["COCNC(=S)Nc1ccc2ncc(-c3cnn(Cc4cccc(OC)c4)c3)nc2n1", "°C", 187],
  ["CCNC(=O)Nc1ccc2ncc(-c3ccc(CO)s3)nc2n1", "°C", 222],
  ["CCNC(=O)Nc1ccc2ncc(-c3cnn(Cc4ccc(OC(F)F)cc4)c3)nc2n1", "°C", 239]
]}

----------
MEASURED QUANTITY: melting point (°C)

{"columns": ["STRUCTURE AS SMILES", "UNITS TEXT", "melting point"],
 "data": [
  ["CCNC(=O)Nc1ccc2ncc(-c3cnn(Cc4ccc(O)c(OC)c4)c3)nc2n1", "°C", 237],
  ["CCNC(=S)Nc1ccc2ncc(-c3cnn(Cc4ccccc4)c3)nc2n1", "°C", 252],
  ["CCNC(=S)Nc1ccc2ncc(-c3cnn(Cc4cc(OC)c(OC)c(OC)c4)c3)nc2n1", "°C", 232],
  ["CCNC(=S)Nc1ccc2ncc(-c3cnn(Cc4ccc(O)c(OC)c4)c3)nc2n1", "°C", 242],
  ["CCNC(=S)Nc1ccc2ncc(-c3cnn(Cc4ccc(O)cc4)c3)nc2n1", "°C", 257],
  ["CCNC(=O)Nc1ccc2ncc(-c3ccc(C)o3)nc2n1", "°C", 242],
  ["CCNC(=S)Nc1ccc2ncc(-c3cnn(Cc4cccc(O)c4)c3)nc2n1", "°C", 239],
  ["CCNC(=S)Nc1ccc2ncc(-c3cnn(Cc4cccnc4)c3)nc2n1", "°C", 238],
  ["CCNC(=S)Nc1ccc2ncc(-c3cnn(Cc4ccc(OC)c(OC)c4OC)c3)nc2n1", "°C", 213],
  ["Cc1cccc(Cn2cc(-c3cnc4ccc(NC(=S)NCC(F)(F)F)nc4n3)cn2)c1", "°C", 249],
  ["CCNC(=O)Nc1ccc2ncc(-c3cnn(Cc4ccc(OC)c(OC)c4)c3)nc2n1", "°C", 205],
  ["CCNC(=S)Nc1ccc2ncc(-c3cnn(Cc4ccc(OC)c(O)c4)c3)nc2n1", "°C", 230]
]}

----------
ASSAYED TARGET: Erk2
Construct: partly as full-length kinases, partly as shortened fragments, but at least consisting of the functional kinase domains
Sequence (P63085 2-358 limits assumed): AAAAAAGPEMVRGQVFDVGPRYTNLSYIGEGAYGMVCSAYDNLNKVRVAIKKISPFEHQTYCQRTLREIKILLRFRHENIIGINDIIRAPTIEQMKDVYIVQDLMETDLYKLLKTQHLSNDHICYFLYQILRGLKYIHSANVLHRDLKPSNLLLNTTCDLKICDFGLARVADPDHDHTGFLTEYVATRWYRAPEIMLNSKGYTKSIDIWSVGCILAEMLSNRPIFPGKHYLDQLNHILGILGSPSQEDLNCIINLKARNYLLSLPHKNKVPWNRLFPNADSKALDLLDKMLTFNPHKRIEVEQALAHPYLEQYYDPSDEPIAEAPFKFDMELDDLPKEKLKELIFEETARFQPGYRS
PROTOCOL DETAILS: Cell-free kinase assay (ALPHA technology), Erk2
STUDY CONDITIONS: at 10 μM ATP; recombinant human kinase
pIC50: −log10 of the molar value.
MEASURED QUANTITY: pIC50

{"columns": ["STRUCTURE AS SMILES", "MEASURED QUANTITY", "OBS VALUE"],
 "data": [
  ["CCNC(=S)Nc1ccc2ncc(-c3cnn(Cc4cccc(OC)c4)c3)nc2n1", "pIC50", 6.47],
  ["CCNC(=S)Nc1ccc2ncc(-c3cnn(Cc4ccc(O)c(OC)c4)c3)nc2n1", "pIC50", 6.28],
  ["CCNC(=S)Nc1ccc2ncc(-c3cnn(Cc4ccc(O)cc4)c3)nc2n1", "pIC50", 6.65],
  ["CCNC(=S)Nc1ccc2ncc(-c3cnn(Cc4ccccc4)c3)nc2n1", "pIC50", 6.57],
  ["CCNC(=S)Nc1ccc2ncc(-c3cnn(Cc4cccc(OC)c4F)c3)nc2n1", "pIC50", 6.31]
]}

1. CCNC(=S)Nc1ccc2ncc(-c3cnn(Cc4cccc(OC(F)F)c4)c3)nc2n1
2. CCNC(=S)Nc1ccc2ncc(-c3cnn(Cc4cccc(S(C)(=O)=O)c4)c3)nc2n1
3. CCNC(=S)Nc1ccc2ncc(-c3cnn(Cc4cccc(C)c4)c3)nc2n1
4. CCNC(=S)Nc1ccc2ncc(-c3cnn(Cc4ccc(OC)c(OC)c4)c3)nc2n1
5. CCNC(=O)Nc1ccc2ncc(-c3cnn(Cc4ccc(OC)c(OC)c4)c3)nc2n1
Ask: // sort entries: pIC50, high to low Write the labels, ordered according to the request.
Result: 5, 4, 2, 3, 1
(5: 7.37, 4: 6.95, 2: 6.65, 3: 6.40, 1: 6.12)

----------
System: Hct116
PROTOCOL DETAILS: XTT assay, anti-proliferative effect
Type: cell-based
STUDY CONDITIONS: Homo sapiens, HCT-116; Hct116 cells, ~48 h incubation
MEASURED QUANTITY: EC50 (nM)

The cases that follow already have their EC50 on record.
{"columns": ["MOLECULE", "EC50 (nM)"],
 "data": [
  ["CCNC(=S)Nc1ccc2ncc(-c3cnn(Cc4cccc(OC)c4)c3)nc2n1 [Compound 40]", 2570],
  ["CCNC(=O)Nc1ccc2ncc(-c3cnn(Cc4ccc(OC)c(OC)c4)c3)nc2n1 [Compound 42]", 1980],
  ["CCNC(=S)Nc1ccc2ncc(-c3cnn(Cc4cccc(S(C)(=O)=O)c4)c3)nc2n1 [Compound 65]", 2110],
  ["CCNC(=S)Nc1ccc2ncc(-c3cnn(Cc4cccc(C)c4)c3)nc2n1 [Compound 41]", 3010],
  ["CCNC(=S)Nc1ccc2ncc(-c3cnn(Cc4ccccc4)c3)nc2n1 [Compound 45]", 1950]
]}

P. CCNC(=S)Nc1ccc2ncc(-c3cnn(Cc4ccc(O)cc4)c3)nc2n1 [Compound 210]
Q. CCNC(=S)Nc1ccc2ncc(-c3cnn(Cc4cccc(OC)c4F)c3)nc2n1 [Compound 29]
Ask: // task: argmin of EC50 over [ P , Q ] Answer by quoting the chosen item's label.
Result: P
(P: 1700 nM, Q: 2560 nM)
